Collected MIC values appear next to each entry.
Tested on: Escherichia coli JR66/W677
Assay: MIC, standard serial dilution method
Type: cell-based
Settings: Escherichia coli, JR66/W677, pH 7; read-out: MIC
API: value field is a number in µg/mL; no unit string.

Illustrative cases are given below, each with its answer.
Given the entry NC[C@@H](F)[C@H](O)C(=O)N[C@@H]1C[C@H](N)[C@@H](O[C@H]2O[C@H](CN)[C@@H](O)[C@H](O)[C@H]2N)[C@H](O)[C@H]1O[C@H]1O[C@H](CO)[C@@H](O)[C@H](N)[C@H]1O [Invention Compound No. 5] , what MIC was observed with Escherichia coli JR66/W677?
0.78

For Escherichia coli JR66/W677, provide MIC of NC[C@@H]1CC[C@@H](N)[C@@H](O[C@H]2[C@H](O)[C@@H](O[C@H]3O[C@H](CO)[C@@H](O)[C@H](N)[C@H]3O)[C@H](NC(=O)[C@@H](O)[C@H](F)CN)C[C@@H]2N)O1 [Invention Compound No. 7] please.
0.78

Form: Entry = NC[C@@H](F)[C@H](O)C(=O)N[C@@H]1C[C@H](N)[C@@H](O[C@H]2O[C@H](CN)[C@@H](O)[C@H](O)[C@H]2O)[C@H](F)[C@H]1O[C@H]1O[C@H](CO)[C@@H](O)[C@H](N)[C@H]1O [Invention Compound No. 4] | System = Escherichia coli JR66/W677 | MIC = ____
1.56

For the record NCC[C@H](O)C(=O)N[C@@H]1C[C@H](N)[C@@H](O[C@H]2O[C@H](CN)CC[C@H]2N)[C@H](O)[C@H]1O[C@H]1O[C@H](CO)[C@@H](O)[C@H](N)[C@H]1O [Habekacin, reference compound] , what value of MIC is listed for Escherichia coli JR66/W677?
0.78

Give the reported MIC for NC[C@@H](F)[C@H](O)C(=O)N[C@@H]1C[C@H](N)[C@@H](O[C@H]2O[C@H](CN)[C@@H](O)C[C@H]2F)[C@H](O)[C@H]1O[C@H]1O[C@H](CO)[C@@H](O)[C@H](N)[C@H]1O [Invention Compound No. 3] (system: Escherichia coli JR66/W677).
0.78

Further cases:
Report MIC for NC[C@@H]1CC[C@@H](N)[C@@H](O[C@H]2[C@H](F)[C@@H](O[C@H]3O[C@H](CO)[C@@H](O)[C@H](N)[C@H]3O)[C@H](NC(=O)[C@@H](O)[C@H](F)CN)C[C@@H]2N)O1 [Invention Compound No. 10] tested on Escherichia coli JR66/W677.
0.39

What measured MIC is associated with NC[C@@H](F)[C@H](O)C(=O)N[C@@H]1C[C@H](N)[C@@H](O[C@@H]2CC[C@H](O)[C@@H](CN)O2)[C@H](O)[C@H]1O[C@H]1O[C@H](CO)[C@@H](O)[C@H](N)[C@H]1O [Invention Compound No. 2] on Escherichia coli JR66/W677?
1.56

Report MIC for NC[C@@H](F)[C@H](O)C(=O)N[C@@H]1C[C@H](N)[C@@H](O[C@H]2O[C@H](CN)[C@@H](O)[C@H](O)[C@H]2O)[C@H](O)[C@H]1O[C@H]1O[C@H](CO)[C@@H](O)[C@H](N)[C@H]1O [Invention Compound No. 1] tested on Escherichia coli JR66/W677.
1.56

Escherichia coli JR66/W677 / MIC / NC[C@@H](F)[C@H](O)C(=O)N[C@@H]1C[C@H](N)[C@@H](O[C@H]2O[C@H](CN)[C@@H](O)[C@H](O)[C@H]2N)[C@H](F)[C@H]1O[C@H]1O[C@H](CO)[C@@H](O)[C@H](N)[C@H]1O [Invention Compound No. 8] : value?
0.78
